# viability, T/C per entry
Test system: 252836-082-R-J2-PDC tumor spheroids, viability;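 also: spheroids exposed to agents for seven days before readout; percent of vehicle DMSO control viability so 100% = untreated growth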
Assay: Anticancer human tumor 252836-082-R-J2-PDC patient-derived head and neck squamous cell carcinoma cell line growth inhibition [PI3K]
Conditions: second compound 0.0316 µM; first compound 0.316 µM; active compounds read low; spheroids with HUVEC and MSC
Give just the numeric value; % need not be written.

Solved cases (3 shown):
Give the reported value of viability, T/C for this record: CC(C)NCC(C(=O)N1CCN(c2ncnc3c2C(C)CC3O)CC1)c1ccc(Cl)cc1 (stereo unspecified) + CC(Nc1ncnc2nc[nH]c12)c1cc2cccc(Cl)c2c(=O)n1-c1ccccc1
76.7

Give the reported value of viability, T/C for this record: C#Cc1c(F)ccc2cc(O)cc(-c3ncc4c(N5CC6CCC(C5)N6)nc(OCC56CCCN5CC(F)C6)nc4c3F)c12 (stereo unspecified) + CC(Nc1ccc2c(c1)OCCn1cc(N3C(=O)OCC3C(F)F)nc1-2)C(N)=O
68.9

Give the reported value of viability, T/C for this record: Cn1ncc(Cl)c1-c1cc(C(=O)NC(CN)Cc2cccc(F)c2)sc1Cl (stereo unspecified) + CC(Nc1ccc2c(c1)OCCn1cc(N3C(=O)OCC3C(F)F)nc1-2)C(N)=O
48.8

Next:
Give the reported value of viability, T/C for this record: CNC(=O)c1ccc(N2C(=S)N(c3ccc(C#N)c(C(F)(F)F)c3)C(=O)C2(C)C)cc1F + CC(Nc1ccc2c(c1)OCCn1cc(N3C(=O)OCC3C(F)F)nc1-2)C(N)=O
80.2

Give the reported value of viability, T/C for this record: Cn1ncc(Cl)c1-c1cc(C(=O)NC(CN)Cc2cccc(F)c2)sc1Cl (stereo unspecified) + Cc1nc(NC(=O)N2CCCC2C(N)=O)sc1-c1ccnc(C(C)(C)C(F)(F)F)c1
57.8

Give the reported value of viability, T/C for this record: CCCS(=O)(=O)Nc1ccc(F)c(C(=O)c2c[nH]c3ncc(-c4ccc(Cl)cc4)cc23)c1F + CC(Nc1ncnc2nc[nH]c12)c1cc2cccc(Cl)c2c(=O)n1-c1ccccc1
109
